tested-on: Neuropeptide FF receptor 1 (Homo sapiens)
Sequence (Q9GZQ6 whole entry): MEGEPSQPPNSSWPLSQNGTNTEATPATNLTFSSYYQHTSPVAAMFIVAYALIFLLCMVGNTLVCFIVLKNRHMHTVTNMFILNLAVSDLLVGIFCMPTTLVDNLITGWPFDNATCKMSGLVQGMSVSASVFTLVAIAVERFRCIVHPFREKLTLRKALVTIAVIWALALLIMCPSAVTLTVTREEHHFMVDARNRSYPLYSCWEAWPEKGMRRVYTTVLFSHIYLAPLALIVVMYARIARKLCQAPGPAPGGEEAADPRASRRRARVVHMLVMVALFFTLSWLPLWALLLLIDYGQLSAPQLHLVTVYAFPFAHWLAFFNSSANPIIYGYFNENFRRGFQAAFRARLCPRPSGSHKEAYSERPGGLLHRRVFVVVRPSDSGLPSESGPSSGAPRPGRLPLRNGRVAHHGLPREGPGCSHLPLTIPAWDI
measurement-notes: Displacement of [3H]FFRF-NH2 from human flag-tagged NPFF1 receptor expressed in CHO cells at 500 nM by scintillation counting
Assay type: cell-based
readout-label: inhibition (%)

I = COc1ccc(CC(=O)N[C@@H](CCCNC(=N)N)C(=O)N[C@@H](Cc2ccccc2)C(N)=O)cc1
II = N=C(N)NCCC[C@@H](NC(=O)c1ccccc1)C(=O)N[C@H](Cc1ccccc1)C(N)=O
Kindly compare I with II and tell me which has the lower inhibition figure. Provide the label of your selected option as the answer.
I
(I: 18%, II: 35%)

1 = CCCCCC(=O)N[C@@H](CCCNC(=N)N)C(=O)N[C@@H](Cc1ccccc1)C(N)=O
2 = N=C(N)NCCC[C@H](NC(=O)c1ccccc1-c1ccccc1)C(=O)N[C@@H](Cc1ccccc1)C(N)=O
Param pair: 1 , 2 . Output: the one whose inhibition is numerically greater. Provide the label of your selected option as the answer.
2
